Where these numbers come from: PubChem BioAssay (NCI)

- Tested on: M14 melanoma
- Experimental details: NCI tumour cell line growth inhibition, 48 h; in the data active means GI50 below about 0.43 µM; inactive means the rest
Thanks in advance; please answer with one of these: yes (1) for active, no (0) for inactive

Study these solved cases before continuing.
COc1cc(NC(=O)c2cc(O)c(C/C=C(\C)CCC=C(C)C)c(O)c2)cc2c1O[C@]1(C)CC[C@@H](O)C(C)(C)[C@H]1C2    no (0)
CCc1c2c(nc3ccc(OCc4ccc(B5OC(C)(C)C(C)(C)O5)cc4)cc13)-c1cc3c(c(=O)n1C2)COC(=O)[C@]3(O)CC    yes (1)
NS(=O)(=O)c1ccc(N2N=C(c3cccs3)CC2c2ccccc2O)cc1 (stereo unspecified)    no (0)
COc1ccc2c(c1)C=C1CSCC3=Cc4cc(OC)ccc4OC13O2    yes (1)
CNC(=O)c1cncc(/C=C/c2c(Cl)cccc2Cl)c1    no (0)

Attention now turns to another entry.
Req: Lab log entry: Cc1ccc(S(=O)(=O)Nc2cc(Sc3ccccc3)c(O)c3ccccc23)cc1 — outcome as called in the assay?
Resp: no (0)
